- System: SK-BR-3 cells
- test_description: Measurement of cell growth inhibition (crystal violet staining)
- Assay type: cell-based
- condition_label: Homo sapiens, 72 hours culture with test substance
assay_metric: IC50 (nM)
Note: unit nM is implicit; provide only the numeric part.

CCc1cn(-c2ccc(C(N)=O)c(NC(C)(C)C)c2)c2cccc(-n3cnc(-c4cnn(C)c4)c3)c12 [Example 48]: 10
CC(C)c1nn(-c2ccc(C(N)=O)c(NC(C)(C)C)c2)c2cccc(-n3cnc(-c4cccnc4)c3)c12 [Example 1]: 20
CCc1cc(C(N)=O)ccc1-n1cc(C(C)C)c2c(-n3cnc(-c4cnn(C)c4)c3)cccc21 [Example 51]: 60
CC(C)Nc1cc(C(N)=O)ccc1-n1nc(C(F)(F)F)c2c(-n3cnc(-c4cnn(C)c4)c3)cccc21 [Example 20]: 90
CC(C)Nc1cc(C(N)=O)ccc1-n1nc(C(F)(F)F)c2c(-n3cnc(-c4cccnc4)c3)cccc21 [Example 22]: 120

# get_value(readout='IC50', item= CCNc1cc(-n2nc(C(F)(F)F)c3c(-n4cnc(-c5cnn(C)c5)c4)cccc32)ccc1C(N)=O [Example 15] ) 20

Entry CC(C)Nc1cc(C(N)=O)ccc1-n1nc(C(C)C)c2c(-n3cnc(-c4cnn(C)c4)c3)cccc21 [Example 12] please 60

Now the compound CCc1cc(C(N)=O)ccc1-n1nc(C(F)(F)F)c2c(-n3cnc(-c4cccnc4)c3)cccc21 [Example 19] 100

# iterate: NC(=O)c1ccc(-n2nc(C(F)(F)F)c3c(-n4cnc(-c5cccnc5)c4)cccc32)c(NC2CCC2)c1 [Example 23] 170

---

Reported IC50 is given for each of the following compounds.
- Tested on: SK-BR-3 cells
- test_description: Measurement of cell growth inhibition (crystal violet staining)
- Assay type: cell-based
- condition_label: Homo sapiens, 72 hours culture with test substance
Lab book: enter the figure in nM, no units written.

CC(C)Nc1cc(C(N)=O)ccc1-n1nc(C(C)C)c2c(-n3cnc(-c4cccnc4)c3)cccc21 [Example 10]: 100

Any idea what IC50 was measured for CCc1cc(C(N)=O)ccc1-n1nc(C(F)(F)F)c2c(-n3cnc(-c4cnn(C)c4)c3)cccc21 [Example 18] ? 50

Now consider CCc1cc(C(N)=O)ccc1-n1nc(C(C)C)c2c(-n3cnc(-c4cnn(C)c4)c3)cccc21 [Example 6] . 30

How about Cc1cn(-c2ccc(C(N)=O)c(NC(C)(C)C)c2)c2cccc(-n3cnc(-c4cnn(C)c4)c3)c12 [Example 46] ? 50

Now consider Cc1cn(-c2ccc(C(N)=O)c(NC(C)(C)C)c2)c2cccc(-n3cnc(-c4cccnc4)c3)c12 [Example 47] and answer again. 120

---

- assayed_target: human HSP90 alpha protein (N-terminal, amino acids 2-236) (Homo sapiens (Human), UniProt P07900)
assay_metric: IC50 (µM)
I only need the number, in µM, no unit after it.

Given the compound CC(C)Nc1cc(C(N)=O)ccc1-n1nc(C(F)(F)F)c2c(-n3cnc(-c4cccnc4)c3)cccc21 , what is its reported IC50? 0.14

And Cc1cn(-c2ccc(C(N)=O)c(NC(C)(C)C)c2)c2cccc(-n3cnc(-c4cnn(C)c4)c3)c12 ? 0.19

Consider next the compound CC(C)c1nn(-c2ccc(C(N)=O)nc2)c2cccc(-n3cnc(-c4cnn(C)c4)c3)c12 in the same way. 0.37

Do the same for NC(=O)c1ccc(-n2nc(C(F)(F)F)c3c(-n4cnc(-c5cccnc5)c4)cccc32)c(N)c1 please 0.1

Subsequent entry: CC(C)c1cn(-c2ccc(C(N)=O)c(NC(C)(C)C)c2)c2cccc(-n3cnc(-c4cnn(C)c4)c3)c12 0.42

Field entry: CC(C)Nc1cc(C(N)=O)ccc1-n1nc(C(C)C)c2c(-n3cnc(-c4cnn(C)c4)c3)cccc21 0.12

Do the same for CC(C)c1nn(-c2ccc(C(N)=O)cc2Cl)c2cccc(-n3cnc(-c4cnn(C)c4)c3)c12 please 0.24
